molecular target: SOS1:KRAS (G12C) interaction (Homo sapiens (Human)); assay: SOS1 KRas(G12C) FRET Assay; details: 0.5 nM His10-SOS1 (res. 564-1049), 2.5 nM GST-KRAS G12C (res. 1-169), 2 hrs at RT
pIC50: −log10 of the molar value.
// pIC50 lookup, one value per entry

Compound	pIC50
C[C@@H](NC(=O)c1cn(C2(C(F)F)CC2)c(=O)cc1N[C@@H]1CCN2CCC[C@H]2C1)c1cccc(C(F)F)c1F (single isomer, unassigned) [Example 303]	7.74
C[C@@H](NC(=O)c1cn(C2(C(F)F)CC2)c(=O)cc1NC1CCN(C2CC2)CC1)c1cccc(C(F)F)c1F [Example 62]	7.70
C[C@@H](NC(=O)c1cn([C@H]2C[C@H](C3CC3)C2)c(=O)cc1N[C@H]1[C@@H]2CN(C)C[C@@H]21)c1cccc(C(F)F)c1F (single isomer, unassigned) [Example 249]	7.78
COc1ccc([C@@H](C)NC(=O)c2cn(C3(C(F)F)CC3)c(=O)cc2NC2CCN(C)CC2)c(F)c1C(F)(F)F (single isomer, unassigned) [Example 165]	5.10
C[C@@H](NC(=O)c1cn(C2(C(F)F)CC2)c(=O)cc1N[C@H]1[C@@H]2CC[C@H]1CN(C)C2)c1cccc(C(F)F)c1F [Example 293]	7.72
C[C@@H](NC(=O)c1cn(C2CCOC(C)(C)C2)c(=O)cc1N[C@H]1[C@@H]2CN(C)C[C@@H]21)c1cccc(C(F)F)c1F (stereo partly drawn) [Example 122]	7.76

* * *

Biological target: SOS1:KRAS (G12C) interaction (Homo sapiens (Human))
Assay: SOS1 KRas(G12C) FRET Assay
Type: binding
Conditions: 0.5 nM His10-SOS1 (res. 564-1049), 2.5 nM GST-KRAS G12C (res. 1-169), 2 hrs at RT
Description: Inhibition of the SOS 1:KRAS interaction was measured using purified GST-tagged KRAS (res. 1-169, G12C, purified based on Hillig, et al., Proc Natl Acad Sci USA (2019); 116(7):2551-2560) and recombinant His10-SOS1 (res. 564-1049; purified based on Hillig, et al.). […] Plates were incubated at RT for 2 hrs before the FRET signal was measured using Envision at emission 665 nm and 615 nm. […]
Values of IC50 strictly less than 30 nM map to fulfilled, and values of at least 30 nM map to not fulfilled.

Molecule	Target or test system	Answer label
CC(Nc1cc(=O)n(C2(C(F)F)CC2)cc1C(=O)N[C@H](C)c1cccc(C(F)F)c1F)C1(CO)CC1 (stereo partly shown) [Example 191]	SOS1:KRAS (G12C) interaction (Homo sapiens (Human))	not fulfilled
C[C@@H](NC(=O)c1cn(C2(C(F)F)CC2)c(=O)cc1NC1CCN(CCF)CC1)c1cccc(C(F)F)c1F [Example 82]	SOS1:KRAS (G12C) interaction (Homo sapiens (Human))	fulfilled
C[C@@H](NC(=O)c1cn(C2CCOCC2)c(=O)cc1NC1CCN(C)CC1)c1cccc(C(F)F)c1F [Example 41]	SOS1:KRAS (G12C) interaction (Homo sapiens (Human))	fulfilled
C[C@@H](NC(=O)c1cn(C2(C(F)F)CC2)c(=O)cc1NCCN1CCOCC1)c1cccc(C(F)F)c1F [Example 81]	SOS1:KRAS (G12C) interaction (Homo sapiens (Human))	not fulfilled
CO[C@@H]1CN(C)CC[C@@H]1Nc1cc(=O)n(C2(C(F)F)CC2)cc1C(=O)N[C@H](C)c1cccc(C(F)F)c1F [Example 154]	SOS1:KRAS (G12C) interaction (Homo sapiens (Human))	not fulfilled
Cc1c([C@@H](C)NC(=O)c2cn(C3CCOCC3)c(=O)cc2N[C@H]2CC[C@]23CCCN(C)C3)cccc1C(F)(F)F (single isomer, unassigned) [Example 298]	SOS1:KRAS (G12C) interaction (Homo sapiens (Human))	not fulfilled
C[C@@H](NC(=O)c1cn(C2(C(F)F)CC2)c(=O)cc1N[C@H]1CCCn2cncc21)c1cccc(C(F)F)c1F (single isomer, unassigned) [Example 183]	SOS1:KRAS (G12C) interaction (Homo sapiens (Human))	fulfilled

* * *

// IC50 lookup, one value per entry
Target: SOS1:KRAS (G12C) interaction (Homo sapiens (Human))
Assay: SOS1 KRas(G12C) FRET Assay
Settings: 0.5 nM His10-SOS1 (res. 564-1049), 2.5 nM GST-KRAS G12C (res. 1-169), 2 hrs at RT
Protocol: Inhibition of the SOS 1:KRAS interaction was measured using purified GST-tagged KRAS (res. 1-169, G12C, purified based on Hillig, et al., Proc Natl Acad Sci USA (2019); 116(7):2551-2560) and recombinant His10-SOS1 (res. 564-1049; purified based on Hillig, et al.). […] Plates were incubated at RT for 2 hrs before the FRET signal was measured using Envision at emission 665 nm and 615 nm. […]
Measured property: IC50 (nM)

Compound	Measured property	Units of measure	Recorded result
C[C@@H](NC(=O)c1cn([C@@H]2CCOC[C@H]2F)c(=O)cc1N[C@H]1[C@@H]2C[C@H]1CN(C)C2)c1cccc(C(F)F)c1F	IC50	nM	6.3
C[C@@H](NC(=O)c1cn([C@@H]2CCOC[C@H]2F)c(=O)cc1NC1CCN(C)CC1)c1cccc(C(F)F)c1F	IC50	nM	3.7
C[C@@H]1C[C@@H]1n1cc(C(=O)N[C@H](C)c2cccc(C(F)F)c2F)c(N[C@H]2[C@@H]3CN(C)C[C@@H]32)cc1=O (single isomer, unassigned)	IC50	nM	15.7
Cc1c([C@@H](C)NC(=O)c2cn(C3CCOCC3)c(=O)cc2N[C@H]2[C@@H]3C[C@H]2CN(C)C3)cccc1C(F)(F)F (single isomer, unassigned)	IC50	nM	47.1
C[C@@H](NC(=O)c1cn(C2(C(F)F)CC2)c(=O)cc1N[C@H]1[C@@H]2CC[C@H]1CN(C)C2)c1cccc(C(F)F)c1F (single isomer, unassigned) [Example 245]	IC50	nM	44.2
C[C@@H](NC(=O)c1cn(C2(C(F)F)CC2)c(=O)cc1NC[C@@H]1CCCN1C)c1cccc(C(F)F)c1F	IC50	nM	41.3

* * *

// pIC50 lookup, one value per entry
target: SOS1:KRAS (G12C) interaction (Homo sapiens (Human), UniProt Q07889); assay: SOS1 KRas(G12C) FRET Assay; conditions: 0.5 nM His10-SOS1 (res. 564-1049), 2.5 nM GST-KRAS G12C (res. 1-169), 2 hrs at RT
Sequence (Q07889 564-1049, stated change not applied): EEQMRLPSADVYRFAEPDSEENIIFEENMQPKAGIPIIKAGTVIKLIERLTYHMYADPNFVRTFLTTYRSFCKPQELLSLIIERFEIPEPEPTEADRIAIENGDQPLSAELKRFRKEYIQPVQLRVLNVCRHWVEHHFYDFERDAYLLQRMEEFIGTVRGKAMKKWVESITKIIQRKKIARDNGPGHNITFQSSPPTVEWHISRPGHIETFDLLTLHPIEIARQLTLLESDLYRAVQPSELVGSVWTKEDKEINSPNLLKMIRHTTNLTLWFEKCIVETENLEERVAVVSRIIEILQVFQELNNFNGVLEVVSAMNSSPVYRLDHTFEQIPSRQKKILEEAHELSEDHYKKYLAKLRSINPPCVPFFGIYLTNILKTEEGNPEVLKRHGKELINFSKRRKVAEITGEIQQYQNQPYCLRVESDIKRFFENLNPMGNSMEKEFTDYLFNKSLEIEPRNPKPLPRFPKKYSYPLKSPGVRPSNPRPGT
pIC50: −log10 of the molar value.

Compound	pIC50
Cc1c([C@@H](C)NC(=O)c2cn(C3CCOCC3)c(=O)cc2N[C@H]2C[C@H](N(C)C)C2)cccc1C(F)(F)F	7.27
C[C@@H](NC(=O)c1cn([C@@H]2CC2(F)F)c(=O)cc1N[C@H]1[C@@H]2CN(C)C[C@@H]21)c1cccc(C(F)F)c1F (single isomer, unassigned)	7.79
CC(C)N1C[C@@H]2[C@H](C1)[C@H]2Nc1cc(=O)n(C2(C(F)F)CC2)cc1C(=O)N[C@H](C)c1cccc(C(F)F)c1F	7.50
C[C@@H](NC(=O)c1cn(C2(C(F)(F)F)CCC2)c(=O)cc1NC1CCN(C)CC1)c1cccc(C(F)F)c1F	7.86
C[C@@H](NC(=O)c1cn(C2(C(F)F)CC2)c(=O)cc1N[C@@H]1[C@@H]2CC[C@H]1CN(C)C2)c1cccc(C(F)F)c1F (single isomer, unassigned) [Example 246]	7.79
C[C@@H](NC(=O)c1cn(C23COC(C)(C2)C3)c(=O)cc1NC1CCN(C)CC1)c1cccc(C(F)F)c1F	7.57

* * *

target: SOS1:KRAS (G12C) interaction (Homo sapiens (Human)); assay: SOS1 KRas(G12C) FRET Assay; conditions: 0.5 nM His10-SOS1 (res. 564-1049), 2.5 nM GST-KRAS G12C (res. 1-169), 2 hrs at RT
pIC50: −log10 of the molar value.
// pIC50 lookup, one value per entry

Molecule	Qualifier symbol	pIC50
Cc1c(C#N)cccc1[C@@H](C)NC(=O)c1cn(C23CC(C2)C3)c(=O)cc1N[C@H]1[C@@H]2CN(C)C[C@@H]21	=	7.10
C[C@@H](NC(=O)c1cn(C(C)(C)C2CC2)c(=O)cc1N[C@H]1[C@@H]2CN(C)C[C@@H]21)c1cccc(C(F)F)c1F	=	6.83
C[C@@H](NC(=O)c1cn([C@H]2CCOC(C)(C)C2)c(=O)cc1NC1CCN(C)CC1)c1cccc(C(F)F)c1F (single isomer, unassigned)	=	7.75
C[C@@H](NC(=O)c1cn([C@H]2C[C@@H]2C2CC2)c(=O)cc1N[C@H]1[C@@H]2CN(C)C[C@@H]21)c1cccc(C(F)F)c1F (single isomer, unassigned)	=	8.01
C[C@@H](NC(=O)c1cn(C2(C(F)(F)F)CC2)c(=O)cc1N[C@@H]1[C@@H]2CC[C@H]1CN(C)C2)c1cccc(C(F)F)c1F (single isomer, unassigned)	=	7.71
C[C@@H](NC(=O)c1cn(C23CC(C2)C3)c(=O)cc1N[C@@H]1[C@@H]2CC[C@H]1CN(C)C2)c1cccc(C(F)F)c1F (single isomer, unassigned)	=	8.05
C[C@@H](NC(=O)c1cn(C2(C(F)F)CC2)c(=O)cc1NC1CCN(C)CC1)c1cccc(C(F)(F)F)c1F	=	7.87
Cc1c([C@@H](C)NC(=O)c2cn(C3CCOCC3)c(=O)cc2NC2CCN(CCF)CC2)cccc1C(F)(F)F	=	7.53
Cc1c([C@@H](C)NC(=O)c2cn(C3CCOCC3)c(=O)cc2N[C@H]2[C@@H]3CC[C@H]2CN(C)C3)cccc1C(F)(F)F (single isomer, unassigned)	=	7.24
C[C@@H](NC(=O)c1cn([C@H]2[C@H](C)C2(F)F)c(=O)cc1N[C@H]1[C@@H]2CN(C)C[C@@H]21)c1cccc(C(C)(F)F)c1F (single isomer, unassigned)	=	7.36
C[C@@H](NC(=O)c1cn([C@]2(C)CCOC2)c(=O)cc1NC1CCN(C)CC1)c1cccc(C(F)F)c1F (single isomer, unassigned)	=	7.59
C[C@@H](NC(=O)c1cn([C@@H]2CC23CC3)c(=O)cc1N[C@H]1[C@@H]2CN(C)C[C@@H]21)c1cccc(C(F)(F)F)c1F (single isomer, unassigned)	=	7.80
C[C@@H](NC(=O)c1cn(C23CC(C2)C3)c(=O)cc1N[C@@H]1[C@@H]2C[C@H]1CN(C)C2)c1cccc(C(F)F)c1F	=	7.89
C[C@@H](NC(=O)c1cn([C@H]2C[C@H](F)C2)c(=O)cc1N[C@H]1[C@@H]2CN(C)C[C@@H]21)c1cccc(C(F)F)c1F	=	7.78
C[C@@H](NC(=O)c1cn([C@]2(C)CCOC2)c(=O)cc1N[C@H]1[C@@H]2CN(C)C[C@@H]21)c1cccc(C(F)F)c1F	=	8.13
C[C@@H](NC(=O)c1cn(C23CC(C2)C3)c(=O)cc1N[C@H]1CCN(C)C[C@H]1F)c1cccc(C(F)F)c1F (single isomer, unassigned)	=	8.34
C[C@@H](NC(=O)c1cn([C@@]2(C)CCOC2)c(=O)cc1NC1CCN(C)CC1)c1cccc(C(F)F)c1F (single isomer, unassigned)	=	8.35
C[C@@H](NC(=O)c1cn(C2CC3(C2)CC(F)(F)C3)c(=O)cc1N[C@@H]1CCN(C)C[C@@H]1F)c1cccc(C(F)F)c1F	=	8.36
CN1C[C@@H]2[C@H](C1)[C@H]2Nc1cc(=O)n(C2(C(F)F)CC2)cc1C(=O)N[C@H](c1cccc(C(F)F)c1F)C(F)(F)F (single isomer, unassigned)	<	5.00
C[C@@H](NC(=O)c1cn(C2CC2)c(=O)cc1N[C@@H]1[C@@H]2CC[C@H]1CN(C)C2)c1cccc(C(F)F)c1F (single isomer, unassigned)	=	7.82
C[C@@H](NC(=O)c1cn(C23CC(F)(C2)C3)c(=O)cc1N[C@@H]1CCN(C)C[C@@H]1F)c1cccc(C(F)F)c1F	=	8.42
C[C@@H](NC(=O)c1cn([C@H]2[C@H](C)C2(F)F)c(=O)cc1N[C@H]1[C@@H]2CN(C)C[C@@H]21)c1cccc(C(F)(F)F)c1F (single isomer, unassigned)	=	8.47

Where do the numbers come from? From patent US20230348424A1.
